Target: UniProt:Q9HCT0
Sequence (Q9HCT0 whole entry, looked up): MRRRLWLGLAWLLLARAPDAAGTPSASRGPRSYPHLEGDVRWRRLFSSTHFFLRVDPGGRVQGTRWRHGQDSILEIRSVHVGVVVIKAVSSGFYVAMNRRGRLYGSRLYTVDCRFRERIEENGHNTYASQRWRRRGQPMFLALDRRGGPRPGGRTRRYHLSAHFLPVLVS
Assay: FGF22 ligand-induced thermal stabilization – biophysical, thermal shift, cherry-pick, FGF22 synaptogenesis inhibitor project, dose response (AID 687022)
Conditions: recombinant FGF22 thermal shift, SYPRO orange melting
Activity calls are given as the source filed them.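 The calls were made as follows: active = Fitted curve of melting temperature shift crosses the 1.0 threshold at or below the sample's highest valid tested concentration; inconclusive = Flat fit with activity 30 to 70, or invalid fit; inactive = Opposite direction, flat within 30, or no crossing.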
Just give me one of these, please: active, inactive

stdin: Any idea what this test logged for O=C(N/N=C/c1c[nH]c2ccccc12)C1CC1c1ccccc1 (centres undefined) ?
stdout: active

stdin: Any idea what this test logged for CCc1nnc(NS(=O)(=O)c2ccc(NC(=O)c3ccc(Br)cc3)cc2)s1 ?
stdout: active

stdin: Any idea what this test logged for O=[N+]([O-])c1ccc(Nc2ccccc2)nc1 ?
stdout: active

stdin: Any idea what this test logged for COc1cc(-c2nc(C)c(C(C)=O)n2O)ccc1OCC(=O)Nc1ccc(Cl)cc1 ?
stdout: active

stdin: Any idea what this test logged for C[C@H](CO)N1C[C@H](C)[C@@H](CN(C)C(=O)C2CC2)OCc2ccccc2-c2ccccc2C1=O ?
stdout: active

stdin: Any idea what this test logged for Nc1ccccc1N=Nc1ccccc1N ?
stdout: active

stdin: Any idea what this test logged for O=C(Nc1ccc(Cl)cc1)N[C@@H]1CC[C@@H](CCNS(=O)(=O)c2ccccc2F)O[C@H]1CO ?
stdout: active

stdin: Any idea what this test logged for C/C(=N\NC(=O)COc1ccc(C)cc1C(C)C)c1cc2ccccc2o1 ?
stdout: active

stdin: Any idea what this test logged for O=C(NN=Cc1ccc(O)cc1O)c1ccccc1NS(=O)(=O)c1cccs1 ?
stdout: active

stdin: Any idea what this test logged for CC(=O)c1c(C)nc(-c2ccc(OCC(=O)Nc3cccc(C)c3C)cc2)n1O ?
stdout: active

stdin: Any idea what this test logged for CO[C@@H](CN(C)S(=O)(=O)c1cccc(Cl)c1)[C@@H](C)CN([C@H](C)CO)S(=O)(=O)c1cccc(Cl)c1 ?
stdout: active

stdin: Any idea what this test logged for COc1ccc(S(=O)(=O)N(NC2=NS(=O)(=O)c3ccccc32)C(=O)C(C)C)cc1 ?
stdout: inactive

stdin: Any idea what this test logged for O=S(=O)(Nc1nnc(C(F)(F)F)s1)c1ccc(Cl)cc1 ?
stdout: active

stdin: Any idea what this test logged for CC1(C)CCC(=O)N2CC[C@H]3C[C@H](OC(=O)Nc4ccccc4)C[C@@H]1[C@H]32 ?
stdout: active

stdin: Any idea what this test logged for COc1ccccc1CNC(=O)C[C@H]1CC[C@@H]2[C@H](COC[C@H](O)CN2C(=O)Nc2ccc(Cl)cc2)O1 ?
stdout: active

stdin: Any idea what this test logged for S=C(Nc1ccc(Cl)cc1)Nc1ccc2cn[nH]c2c1 ?
stdout: active

stdin: Any idea what this test logged for COc1ccc(NS(=O)(=O)c2cccc(C(=O)NNC(=O)c3ccccc3O)c2)cc1 ?
stdout: active

stdin: Any idea what this test logged for COc1cccc(NC(=O)N(C)C[C@@H]2Oc3cc(-c4ccccc4F)ccc3S(=O)(=O)N([C@@H](C)CO)C[C@@H]2C)c1 ?
stdout: active

stdin: Any idea what this test logged for Cc1nc2c(C)cccc2cc1C(=O)N/N=C/c1ccc(O)cc1 ?
stdout: active

stdin: Any idea what this test logged for O=C(C[C@@H]1CC[C@@H]2[C@H](COC[C@@H](O)CN2S(=O)(=O)c2cccc(F)c2)O1)Nc1ccc(-c2ccccc2)cc1 ?
stdout: active

stdin: Any idea what this test logged for CCOc1ccc(-c2cc(C(=O)N/N=C/c3cccnc3)c3ccccc3n2)cc1 ?
stdout: active

stdin: Any idea what this test logged for CC(C)CC(=O)n1sc(NC(=O)c2ccccc2)nc1=O ?
stdout: active

stdin: Any idea what this test logged for CCOC(=O)C(c1c(O)c2ccccc2oc1=O)c1c(O)c2ccccc2oc1=O ?
stdout: inactive

stdin: Any idea what this test logged for COc1cccc(NC(=O)N(C)C[C@H]2Oc3cc(-c4ccccc4F)ccc3S(=O)(=O)N([C@H](C)CO)C[C@@H]2C)c1 ?
stdout: active

stdin: Any idea what this test logged for O=C(Nc1nnc(C(F)(F)F)s1)c1ccc(Br)s1 ?
stdout: active

stdin: Any idea what this test logged for COC(=O)C[C@H]1CC[C@@H]2[C@@H](COc3ccc(NC(=O)Nc4ccc(C#N)cc4)cc3C(=O)N2C)O1 ?
stdout: active

stdin: Any idea what this test logged for O=C(Nc1ccccc1)N1C[C@H]2[C@@H](c3ccccc31)[C@@H](CO)N2C(=O)c1ccncc1 ?
stdout: active

stdin: Any idea what this test logged for O=C(CCc1ccccc1)c1c(O)cc(O)cc1O ?
stdout: inactive

stdin: Any idea what this test logged for COc1ccc(-c2ccc([C@H]3[C@@H](CO)N4CCCCN(C(=O)c5ccc6c(c5)OCO6)C[C@H]34)cc2)cc1 ?
stdout: active

stdin: Any idea what this test logged for C/C=C/c1ccc2c(c1)O[C@@H](CN(C)C(=O)Nc1cc(F)ccc1F)[C@@H](C)CN([C@H](C)CO)S2(=O)=O ?
stdout: active

stdin: Any idea what this test logged for CCn1ccnc1CN(C)C(=O)c1ccc2nc(Cc3ccc(OC)cc3)oc2c1 ?
stdout: active

stdin: Any idea what this test logged for COc1ccc(N2C(=O)C(CC(=O)Nc3ccccc3)N(Cc3ccccn3)C2=S)cc1 (centres undefined) ?
stdout: active

stdin: Any idea what this test logged for O=C(Nc1ccc(O)cc1)c1cccc(Oc2ccc([N+](=O)[O-])cc2)c1 ?
stdout: active

stdin: Any idea what this test logged for Clc1ccc(Nc2ccc(NCc3ccccc3)nn2)cc1 ?
stdout: active

stdin: Any idea what this test logged for COc1cc(/C=N/NC(=O)c2cc3ccccc3[nH]2)ccc1O ?
stdout: active

stdin: Any idea what this test logged for Oc1ccc(-c2nc3ccccc3s2)c(O)c1 ?
stdout: active

stdin: Any idea what this test logged for COc1ccc(NC(=O)N[C@H]2CC[C@@H](CCn3cc(-c4ccc(OC)cc4)nn3)O[C@@H]2CO)cc1 ?
stdout: inactive

stdin: Any idea what this test logged for CCc1ccc(N2CC(C(=O)OCC(=O)Nc3ccc(C#N)cc3)CC2=O)cc1 (centres undefined) ?
stdout: active

stdin: Any idea what this test logged for CS(=O)(=O)c1ccc2nc(NC(=O)c3ccc(Cl)nc3)sc2c1 ?
stdout: active
